All values here come from PubChem BioAssay AID1159580.

Test: chemical genetic growth profiling, strain panel (AID 1159580);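 further: tested at 20 µM; growth read once vehicle control cultures reached saturation at 30 °C; 1 = growth at the plate median or of vehicle wells; lower values mean less growth of the strain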
Conditions: S. cerevisiae deletion strains, growth OD, strain wtn01, hits give low values
The campaign covered roughly 5,500 compounds. About 2,000 (36%) were called active. About 18% were inconclusive and are not listed. This is one part of the list.
Quick list: normalized growth per entry.

Observe how each entry below is paired with its result.
COc1cc(OC)c2c(=O)c(OC)c(-c3ccc(OC)c(OC)c3)oc2c1 :: 1.04 (inactive)
CCCCCCC(C)OC(=O)COc1ccc(Cl)cc1Cl (centres undefined) :: 1 (inactive)
COc1ccc(-c2oc3c(CC=C(C)C)c(O[C@@H]4O[C@H](CO)[C@@H](O)[C@H](O)[C@H]4O)cc(O)c3c(=O)c2O[C@@H]2O[C@@H](C)[C@H](O)[C@@H](O)[C@H]2O)cc1 :: 0.986 (inactive)

Data request: Retrieve normalized growth measured for COc1ccc(-c2cc(=O)c3c(O)cc(O[C@H]4O[C@H](CO[C@@H]5O[C@@H](C)[C@H](O)[C@@H](O)[C@H]5O)[C@@H](O)[C@H](O)[C@H]4O)cc3o2)cc1 and print it.
Data returned: 1.04 (inactive)
